All figures here come from patent US7741327B2.

Molecular target: Recombinant human liver GK1 (GST-GK) (Homo sapiens, UniProt P35557)
Construct: made in house; host or cells: E. coli
Sequence (P35557 1-466 isoform P35557-2): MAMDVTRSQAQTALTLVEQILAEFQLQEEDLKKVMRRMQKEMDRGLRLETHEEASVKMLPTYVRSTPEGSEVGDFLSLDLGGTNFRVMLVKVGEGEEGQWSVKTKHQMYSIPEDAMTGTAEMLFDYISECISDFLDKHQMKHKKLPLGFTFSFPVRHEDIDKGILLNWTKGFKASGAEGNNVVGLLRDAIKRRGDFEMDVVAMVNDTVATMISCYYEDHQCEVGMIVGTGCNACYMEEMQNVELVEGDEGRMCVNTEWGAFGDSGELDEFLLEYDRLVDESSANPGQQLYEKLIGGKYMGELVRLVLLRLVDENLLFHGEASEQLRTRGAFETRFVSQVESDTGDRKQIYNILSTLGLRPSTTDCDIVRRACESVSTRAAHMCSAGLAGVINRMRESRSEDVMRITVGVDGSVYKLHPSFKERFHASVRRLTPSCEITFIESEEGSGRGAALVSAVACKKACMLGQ
Test: In vitro glucokinase activity (G6PDH-coupled NADH assay)
Type: biochemical
Conditions: 30° C., 5 mM D-glucose, 10% DMSO
Please go through the items and note down their SC1.5 (concentration of activator that produced a 50% increase in the activity of GK).
Only the number, expressed in µM, is required.

IN: Consider the molecule `CC(C)C[C@@H](C(=O)Nc1ccn(C[C@@H](O)CO)n1)N1CC(Oc2c(F)cccc2F)=CC1=O` . State its measured SC1.5 (concentration of activator that produced a 50% increase in the activity of GK).
OUT: 0.257

IN: Give recorded SC1.5 (concentration of activator that produced a 50% increase in the activity of GK). `COc1ccccc1OC1=CC(=O)N([C@@H](CC2CCCC2)C(=O)Nc2ccn(CC(C)(C)O)n2)C1`
OUT: 0.029

IN: // Input: `COc1ccccc1OC1=CC(=O)N([C@@H](CC2CCCCC2)C(=O)Nc2ccn(C)n2)C1` . Output its SC1.5 (concentration of activator that produced a 50% increase in the activity of GK) only.
OUT: 0.033

IN: Fill in SC1.5 (concentration of activator that produced a 50% increase in the activity of GK) for record `O=C(Nc1ccn(C[C@H](O)CO)n1)[C@H](CC1CCCCC1)N1CC(Oc2c(F)cccc2F)=CC1=O`
OUT: 0.036

IN: Please indicate SC1.5 (concentration of activator that produced a 50% increase in the activity of GK) recorded for `CCOc1ccccc1OC1=CC(=O)N([C@@H](CC(C)C)C(=O)Nc2ccn(C[C@@H](O)CO)n2)C1.Cl`
OUT: 1.312

IN: Provide only the value of recorded SC1.5 (concentration of activator that produced a 50% increase in the activity of GK) for `O=C(Nc1ccn(C[C@@H](O)CO)n1)[C@H](Cc1ccccc1Cl)N1CC(Oc2ccccc2Cl)=CC1=O`
OUT: 0.894

IN: Please report SC1.5 (concentration of activator that produced a 50% increase in the activity of GK) for the following molecule: CC[C@@H](C)C[C@H](C(=O)Nc1ccn(C[C@@H](O)CO)n1)N1CC(Oc2ccccc2Cl)=CC1=O (single isomer, unassigned)
OUT: 16.154

IN: For `CCOc1cccc(OC2=CC(=O)N([C@@H](CC(C)C)C(=O)Nc3ccn(C[C@@H](O)CO)n3)C2)c1Cl` , write its SC1.5 (concentration of activator that produced a 50% increase in the activity of GK).
OUT: 0.042

IN: Kindly indicate its recorded SC1.5 (concentration of activator that produced a 50% increase in the activity of GK). Item: `CC(C)C[C@@H](C(=O)Nc1ccn(C[C@@H](O)CO)n1)N1CC(Oc2cccc(C(F)(F)F)c2)=CC1=O`
OUT: 0.97

IN: Identify measured SC1.5 (concentration of activator that produced a 50% increase in the activity of GK) associated with `Cc1ccc(F)c(OC2=CC(=O)N([C@@H](CC(C)C)C(=O)Nc3ccn(C[C@@H](O)CO)n3)C2)c1`
OUT: 0.072

IN: Given the molecule `CC(C)C[C@@H](C(=O)Nc1ccn(CC(C)(C)O)n1)N1CC(Oc2c(F)ccc(OC(C)C)c2F)=CC1=O` , write its reported SC1.5 (concentration of activator that produced a 50% increase in the activity of GK).
OUT: 0.066

IN: Provide only the value of recorded SC1.5 (concentration of activator that produced a 50% increase in the activity of GK) for CC[C@@H](C)CC(C(=O)Nc1ccn(C[C@@H]2COC(C)(C)O2)n1)N1CC(Oc2ccccc2Cl)=CC1=O (some centres unmarked)
OUT: 0.197

IN: Supply reported SC1.5 (concentration of activator that produced a 50% increase in the activity of GK) belonging to this molecule: CNC(=O)NC(=O)C(CC1CCCCC1)N1CC(Oc2cccc(OC)c2Cl)=CC1=O (centres unmarked)
OUT: 1.597

IN: In one line, give reported SC1.5 (concentration of activator that produced a 50% increase in the activity of GK) of the entry `CC(C)C[C@@H](C(=O)Nc1ccn(CC(C)(C)O)n1)N1CC(Oc2cccc3ocnc23)=CC1=O` .
OUT: 3.036
